Test system: Staphylococcus sp.
Experiment: in vitro antibacterial evaluation, MIC by broth dilution
Format: cell-based
Settings: broth dilution, 18 hours at 35° C.; strain GC 6257
I'd be grateful if you could share measured MIC Coagulase Negative Staphylococcus (GC 6257) for these entries.
Numbers only, in µg/mL.

Before answering, review these 10 worked examples.
For the compound shown here, CC(c1ccccc1)C1NC(=O)CNC(=O)C(CO)NC(=O)C(CC2CNC(=N)N2C2OC(CO)C(O)C(O)C2O)NC(=O)C(CC2CNC(=N)N2)NC(=O)C(Cc2ccc(OC3OC(CO)C(OC4OC(COCc5ccc(OCc6ccccc6)cc5)C(O)C(O)C4O)C(O)C3O)cc2)NC1=O (centres unmarked) , give the reported MIC Coagulase Negative Staphylococcus (GC 6257).
2

Request the reported MIC Coagulase Negative Staphylococcus (GC 6257) associated with CC(C)=CCOc1cccc(C2OCC3OC(OC4C(CO)OC(Oc5ccc(CC6NC(=O)C(C(C)c7ccccc7)NC(=O)CNC(=O)C(CO)NC(=O)C(C(O)C7CNC(=N)N7C7OC(CO)C(O)C(O)C7O)NC(=O)C(C(O)C7CNC(=N)N7)NC6=O)cc5)C(O)C4O)C(O)C(O)C3O2)c1 (centres unmarked)
8

So what's the measured MIC Coagulase Negative Staphylococcus (GC 6257) for this one? CC(c1ccccc1)C1NC(=O)CNC(=O)C(CO)NC(=O)C(C(O)C2CNC(=N)N2C2OC(CO)C(O)C(O)C2O)NC(=O)C(C(O)C2CNC(=N)N2)NC(=O)C(Cc2ccc(OC3OC(CO)C(OC4OC5COC(c6ccc(-c7cccs7)cc6)OC5C(O)C4O)C(O)C3O)cc2)NC1=O (centres unmarked)
2

Can you share its MIC Coagulase Negative Staphylococcus (GC 6257)? I mean this compound: CC(c1ccccc1)C1NC(=O)CNC(=O)C(CO)NC(=O)C(C(O)C2CNC(=N)N2C2OC(CO)C(O)C(O)C2O)NC(=O)C(C(O)C2CNC(=N)N2)NC(=O)C(Cc2ccc(OC3OC(CO)C(OC4OC5COC(c6ccc(C(=O)c7ccccc7)cc6)OC5C(O)C4O)C(O)C3O)cc2)NC1=O (centres unmarked)
0.5

I am curious: what MIC Coagulase Negative Staphylococcus (GC 6257) value has been reported for CC(c1ccccc1)C1NC(=O)CNC(=O)C(CO)NC(=O)C(C(O)C2CNC(=N)N2C2OC(CO)C(O)C(O)C2O)NC(=O)C(C(O)C2CNC(=N)N2)NC(=O)C(Cc2ccc(OC3OC(CO)C(OC4OC5COC(c6ccc(-c7ccsc7)cc6)OC5C(O)C4O)C(O)C3O)cc2)NC1=O (centres unmarked) ?
1

Name the reported MIC Coagulase Negative Staphylococcus (GC 6257) value associated with the compound CC(c1ccccc1)C1NC(=O)CNC(=O)C(CO)NC(=O)C(C(O)C2CN(Cc3ccc(C(F)(F)F)cc3)C(=N)N2C2OC(CO)C(O)C(O)C2O)NC(=O)C(C(O)C2CNC(=N)N2)NC(=O)C(Cc2ccc(OC3OC(CO)C(OC4OC5COC6(OC5C(O)C4O)C4CC5CC(C4)CC6C5)C(O)C3O)cc2)NC1=O (centres unmarked)
2

I'd like to know its MIC Coagulase Negative Staphylococcus (GC 6257). The compound in question is CC(c1ccccc1)C1NC(=O)CNC(=O)C(CO)NC(=O)C(C(O)C2CNC(=N)N2C2OC(CO)C(O)C(O)C2O)NC(=O)C(C(O)C2CNC(=N)N2)NC(=O)C(Cc2ccc(OC3OC(CO)C(OC4OC(COCC=Cc5ccccc5)C(O)C(O)C4O)C(O)C3O)cc2)NC1=O (centres unmarked)
2

I am curious: what MIC Coagulase Negative Staphylococcus (GC 6257) value has been reported for COc1ccc(COCC2OC(OC3C(CO)OC(Oc4ccc(CC5NC(=O)C(C(C)c6ccccc6)NC(=O)CNC(=O)C(CO)NC(=O)C(C(O)C6CNC(=N)N6C6OC(CO)C(O)C(O)C6O)NC(=O)C(C(O)C6CNC(=N)N6)NC5=O)cc4)C(O)C3O)C(O)C(O)C2O)cc1OCc1ccccc1 (centres unmarked) ?
1

Would you mind telling me what MIC Coagulase Negative Staphylococcus (GC 6257) value was observed for CC(c1ccccc1)C1NC(=O)CNC(=O)C(CO)NC(=O)C(C(O)C2CNC(=N)N2C2OC(CO)C(O)C(O)C2O)NC(=O)C(C(O)C2CNC(=N)N2)NC(=O)C(Cc2ccc(OC3OC(CO)C(OC4OC(CO)C(O)C5OC(c6ccccc6)OC45)C(O)C3O)cc2)NC1=O (single isomer, unassigned) [Example 104b] ?
2

Would you kindly share the measured MIC Coagulase Negative Staphylococcus (GC 6257) for CC(c1ccccc1)C1NC(=O)CNC(=O)C(CO[Si](C)(C)C(C)(C)C)NC(=O)C(C(O)C2CNC(=N)N2C2OC3COC(C)(C)OC3C3OC(C)(C)OC32)NC(=O)C(C(O)C2CNC(=N)N2)NC(=O)C(Cc2ccc(O)cc2)NC1=O (centres unmarked) ?
16

Hey, quick one: what's MIC Coagulase Negative Staphylococcus (GC 6257) for each of these?
1. Cc1cccc(C2OCC3OC(OC4C(CO)OC(Oc5ccc(CC6NC(=O)C(C(C)c7ccccc7)NC(=O)CNC(=O)C(CO)NC(=O)C(C(O)C7CNC(=N)N7C7OC(CO)C(O)C(O)C7O)NC(=O)C(C(O)C7CNC(=N)N7)NC6=O)cc5)C(O)C4O)C(O)C(O)C3O2)c1 (centres unmarked)
2. CC(=O)n1cc(C2OCC3OC(OC4C(CO)OC(Oc5ccc(CC6NC(=O)C(C(C)c7ccccc7)NC(=O)CNC(=O)C(CO)NC(=O)C(C(O)C7CNC(=N)N7C7OC(CO)C(O)C(O)C7O)NC(=O)C(C(O)C7CNC(=N)N7)NC6=O)cc5)C(O)C4O)C(O)C(O)C3O2)c2ccccc21 (centres unmarked)

[0.5, 2]

###

Test system: Staphylococcus sp.
Assay: in vitro antibacterial evaluation, MIC by broth dilution
Type: cell-based
Details: broth dilution, 18 hours at 35° C.; strain GC 4549
Provide the reported MIC Coagulase Negative Staphylococcus (GC 4549) of each item.
One number for each entry, in µg/mL.

For orientation, consider the following solved cases.
Field request: MIC Coagulase Negative Staphylococcus (GC 4549) | item: CC(C)CC(=O)OCC1OC(OC2C(CO)OC(Oc3ccc(CC4NC(=O)C(Cc5ccccc5)NC(=O)CNC(=O)C(CO)NC(=O)C(C(O)C5CNC(=N)N5C5OC(CO)C(O)C(O)C5O)NC(=O)C(C(O)C5CNC(=N)N5)NC4=O)cc3)C(O)C2O)C(O)C(O)C1O (stereo not shown) [Example 283c]
16

Tell me the measured MIC Coagulase Negative Staphylococcus (GC 4549) of CC(C)CCC(=O)OC1C(OC2C(CO)OC(Oc3ccc(CC4NC(=O)C(C(C)c5ccccc5)NC(=O)CNC(=O)C(CO)NC(=O)C(C(O)C5CNC(=N)N5C5OC(CO)C(O)C(O)C5O)NC(=O)C(C(O)C5CNC(=N)N5)NC4=O)cc3)C(O)C2O)OC(CO)C(O)C1O (stereo not shown) [Example 270a] , please.
2

Others:
Report MIC Coagulase Negative Staphylococcus (GC 4549) for CC(c1ccccc1)C1NC(=O)CNC(=O)C(CO)NC(=O)C(C(O)C2CNC(=N)N2C2OC(CO)C(O)C(O)C2O)NC(=O)C(C(O)C2CNC(=N)N2)NC(=O)C(Cc2ccc(OC3OC(CO)C(OC4OC5COC(C6CCCC6)OC5C(O)C4O)C(O)C3O)cc2)NC1=O (stereo not shown) please.
1

###

Tested on: Enterococcus sp.
Assay: in vitro antibacterial evaluation, MIC by broth dilution
Type: cell-based
Conditions: broth dilution, 18 hours at 35° C.
Would you mind telling me the reported MIC Enterococcus faecalis (GC 2242) of each entry?

Example compounds with recorded MIC Enterococcus faecalis (GC 2242):
Return MIC Enterococcus faecalis (GC 2242) measured with Enterococcus sp. given this compound: CC(c1ccccc1)C1NC(=O)CNC(=O)C(CO)NC(=O)C(C(O)C2CN(Cc3ccc(C(C)(C)C)cc3)C(=N)N2C2OC(CO)C(O)C(O)C2O)NC(=O)C(C(O)C2CNC(=N)N2)NC(=O)C(Cc2ccc(OC3OC(CO)C(OC4OC(CO)C(O)C(O)C4O)C(O)C3O)cc2)NC1=O (stereo not shown)
>128 mg/L

MIC Enterococcus faecalis (GC 2242) of CCCCCC(=O)OCC1OC(OC2C(CO)OC(Oc3ccc(CC4NC(=O)C(C(C)c5ccccc5)NC(=O)CNC(=O)C(CO)NC(=O)C(C(O)C5CNC(=N)N5C5OC(CO)C(O)C(O)C5O)NC(=O)C(C(O)C5CNC(=N)N5)NC4=O)cc3)C(O)C2O)C(O)C(O)C1O (stereo not shown) [Example 95b] on Enterococcus sp.?
8 mg/L

Tell me reported MIC Enterococcus faecalis (GC 2242) for CC(c1ccccc1)C1NC(=O)CNC(=O)C(CO)NC(=O)C(CC2CNC(=N)N2C2OC(CO)C(O)C(O)C2O)NC(=O)C(CC2CNC(=N)N2)NC(=O)C(Cc2ccc(OC3OC(CO)C(OC4OC5COC(c6ccc(OCc7ccccc7)cc6)OC5C(O)C4O)C(O)C3O)cc2)NC1=O (stereo not shown) , tested with Enterococcus sp..
8 mg/L

Here is another compound to look at.
Tell me reported MIC Enterococcus faecalis (GC 2242) for CC(c1ccccc1)C1NC(=O)CNC(=O)C(CO)NC(=O)C(C(O)C2CNC(=N)N2C2OC(CO)C(O)C(O)C2O)NC(=O)C(C(O)C2CNC(=N)N2)NC(=O)C(Cc2ccc(OC3OC(CO)C(OC4OC5COC6(OC5C(O)C4O)C(C)CCCC6C)C(O)C3O)cc2)NC1=O (stereo not shown) , tested with Enterococcus sp..
2 mg/L
